Recorded MICA(A + B) (MIC of compound in combination with colistin) by entry
System: A. baumannii CQ4322
MEASUREMENT PROTOCOL: Broth microdilution MIC/MBC, glycosides with or without polymyxins
Assay type: cell-based, Acinetobacter baumannii
TEST CONDITIONS: combination with the lowest FICI
Please state the figure in µg/mL; there is no need to write the unit.

{"COMPOUND": "CCCCCCCCCCCCO[C@@H]1C[C@@H](O)[C@H](O)[C@@H](CO)O1 [Compound 4]", "TARGET UNDER TEST": "A. baumannii CQ4322", "NUMERIC RESULT": 0.4}
{"COMPOUND": "CCCCCCCCCCCCO[C@@H]1O[C@H](C)C[C@H](O)[C@H]1O [Compound 2]", "TARGET UNDER TEST": "A. baumannii CQ4322", "NUMERIC RESULT": 6.25}
{"COMPOUND": "CCCCCCCCCCCCO[C@H]1C[C@H](O)[C@@H](O)[C@H](C)O1 [Compound 3]", "TARGET UNDER TEST": "A. baumannii CQ4322", "NUMERIC RESULT": 6.25}
{"COMPOUND": "CCCCCCCCCCCC[C@H]1O[C@H](C)C[C@H](O)[C@H]1O [Compound 5]", "TARGET UNDER TEST": "A. baumannii CQ4322", "NUMERIC RESULT": 25}

With those in mind, consider the next compound.
The value of MICA(A + B) (MIC of compound in combination with colistin) measured for the compound CCCCCCCCCCCCO[C@H]1O[C@H](C)C[C@H](O)[C@H]1O [Compound 1] turned out to be 3.125

###

Tested on: E. cloacae CQ1941
MEASUREMENT PROTOCOL: Broth microdilution MIC/MBC, glycosides with or without polymyxins
Assay type: cell-based
TEST CONDITIONS: Enterobacter cloacae, CQ1941; antibiotic alone; strain D; read-out: MIC (antibiotic susceptibility profile)
RECORDED ENDPOINT: MIC

# example entries with known answers
{"MOLECULE": "CC1(C)S[C@@H]2[C@H](NC(=O)[C@H](N)c3ccccc3)C(=O)N2[C@H]1C(=O)O [Ampicillin, reference compound]", "TARGET UNDER TEST": "E. cloacae CQ1941", "RECORDED ENDPOINT": "MIC", "RESULT": "≥ 128 µg/mL"}
{"MOLECULE": "CC1(C)S[C@@H]2[C@H](NC(=O)[C@H](N)c3ccc(O)cc3)C(=O)N2[C@H]1C(=O)O [Amoxicillin, reference compound]", "TARGET UNDER TEST": "E. cloacae CQ1941", "RECORDED ENDPOINT": "MIC", "RESULT": "≥ 128 µg/mL"}

The value of MIC measured for the molecule CNC(C)C1CCC(N)C(OC2C(N)CC(N)C(OC3OCC(C)(O)C(NC)C3O)C2O)O1 (stereo not drawn) [Gentamicin, reference compound] turned out to be ≥ 128 µg/mL

The value of MIC measured for the molecule C[C@@H](O)[C@H]1C(=O)N2C(C(=O)O)=C(SCCN=CN)C[C@H]12 [Imipenem, reference compound] turned out to be 16 µg/mL

###

System: E. coli ATCC 25922
MEASUREMENT PROTOCOL: Broth microdilution MIC/MBC, glycosides with or without polymyxins
Format: cell-based, Escherichia coli
TEST CONDITIONS: Cpd conc. 3.125 μg/mL; strain A
Recorded MIC of colistin in combination with the compound by entry
Please state the figure in µg/mL; there is no need to write the unit.

{"COMPOUND": "CCCCCCCCCCCCO[C@H]1C[C@H](O)[C@@H](O)[C@H](C)O1 [Compound 3]", "RESULT UNIT": "µg/mL", "NUMERIC RESULT": 0.25}

The value of MIC of colistin in combination with the compound measured for the compound CCCCCCCCCCCCO[C@H]1O[C@H](C)C[C@H](O)[C@H]1O [Compound 1] turned out to be 0.25

The value of MIC of colistin in combination with the compound measured for the compound CCCCCCCCCCCC[C@H]1O[C@H](C)C[C@H](O)[C@H]1O [Compound 5] turned out to be 0.25

The value of MIC of colistin in combination with the compound measured for the compound CCCCCCCCCCCCO[C@@H]1C[C@@H](O)[C@H](O)[C@@H](CO)O1 [Compound 4] turned out to be 0.5
